Tested on: Italian ryegrass (Lolium multiflorum)
Assay: Test A postemergence, visual injury rating
Type: in vivo
Details: 125 g ai/ha, 0 to 100 scale, 0 is no effect, 100 is complete control, approximately 10 days
Label scheme for Ryegrass, Italian plant response rating: lower than 20 is N, 20 and above is Y.

IN: Evaluate O=C(NCCC(F)(F)F)c1c(Br)cccc1Oc1ncc(Cl)cn1 [Compound 93] : Ryegrass, Italian plant response rating at minimum 20?
OUT: N

IN: Hi team, for FC(F)(F)CCCCc1c(Oc2ncc(Cl)cn2)cccc1C1CC1 [Compound 135] , is the recorded Ryegrass, Italian plant response rating at or above 20?
OUT: N

IN: Is Ryegrass, Italian plant response rating for N#Cc1cccc(Oc2ncc(Cl)cn2)c1C(=O)CCCCC(F)(F)F [Compound 109] at or above 20?
OUT: N

IN: Form field: Ryegrass, Italian plant response rating at least 20? Entry: C=C(C)CCOC(=O)c1c(Br)cccc1Oc1ncc(Cl)cn1 [Compound 90]
OUT: N

IN: Please indicate if the recorded Ryegrass, Italian plant response rating for N#Cc1cccc(Oc2ncc(Cl)cn2)c1CCCC(F)(F)F [Compound 72] meets or exceeds 20.
OUT: N

IN: Assess whether reported Ryegrass, Italian plant response rating for O=C(OCCC(F)(F)F)c1c(OCC(F)(F)F)cccc1Oc1ncc(Cl)cn1 [Compound 117] sits at 20 or higher.
OUT: N

IN: Threshold query (Ryegrass, Italian plant response rating >= 20) on FC(F)(F)CCCCc1c(Br)cccc1Oc1ncc(Cl)cn1 [Compound 138]
OUT: Y

IN: Evaluate C=CCSC(=O)c1c(Br)cccc1Oc1ncc(Cl)cn1 [Compound 91] : Ryegrass, Italian plant response rating at minimum 20?
OUT: N

IN: For this compound, is measured Ryegrass, Italian plant response rating 20 or higher? CCCCC(C#N)c1ccccc1Oc1ncc(Cl)cn1 (centres unmarked) [Compound 129]
OUT: Y

IN: Entry FC(F)(F)CCCc1c(Br)cccc1Oc1ncc(Cl)cn1 [Compound 89] : is its Ryegrass, Italian plant response rating no less than 20?
OUT: Y

IN: Evaluate CC(=NOC(C)C)c1c(Cl)cccc1Oc1ncc(Cl)cn1 [Compound 104] : Ryegrass, Italian plant response rating at minimum 20?
OUT: N

IN: Quick check, Ryegrass, Italian plant response rating >= 20? O=Cc1c(Cl)cccc1Oc1ncc(Cl)cn1 [Compound 139]
OUT: N

IN: Does the reported Ryegrass, Italian plant response rating for CCCC(=O)c1c(Br)cccc1Oc1ncc(Cl)cn1 [Compound 75] fall at or above the 20 mark?
OUT: Y

IN: Decide: Ryegrass, Italian plant response rating of N#Cc1cccc(Oc2ncc(Cl)cn2)c1NCCCC(F)(F)F [Compound 146] >= 20?
OUT: Y

IN: Reported Ryegrass, Italian plant response rating at or above 20? CCCCCC(C#N)c1ccccc1Oc1ncc(Cl)cn1 (centres unmarked) [Compound 141]
OUT: N

IN: Decide: Ryegrass, Italian plant response rating of O=C(OCCC(F)(F)F)c1cc(Cl)ccc1Oc1ncc(Cl)cn1 [Compound 88] >= 20?
OUT: N

###

So I've got a bunch of compounds here, and I need their Plant response rating, Sedge, Umbrella values.
System: sedge, umbrella (small-flower umbrella sedge, Cyperus difformis)
Test: Test B flooded paddy test, plant response rating
Assay type: in vivo
Conditions: 250 g ai/ha; Flood; scale of 0 to 100 where 0 is no effect and 100 is complete control; 13 to 15 days
Quick one: just the number, no unit, thanks!

IN: Can you look up the measured Plant response rating, Sedge, Umbrella of `CCON=C(C)c1c(Br)cccc1Oc1ncc(Cl)cn1` for me?
OUT: 0

IN: Param item = `CCCCOC(=O)c1c(Br)cccc1Oc1ncc(Cl)cn1` ; retrieve measured Plant response rating, Sedge, Umbrella.
OUT: 70

IN: I'd like to know its Plant response rating, Sedge, Umbrella. The compound in question is `O=C(OCC1CCC1)c1c(Br)cccc1Oc1ncc(Cl)cn1`
OUT: 70

IN: Request the reported Plant response rating, Sedge, Umbrella associated with N#CC(CCCCC(F)(F)F)c1ccccc1Oc1ncc(Cl)cn1 (centres unmarked)
OUT: 100

IN: Tell me the measured Plant response rating, Sedge, Umbrella of C=CC(C)COC(=O)c1c(Br)cccc1Oc1ncc(Cl)cn1 (centres unmarked) , please.
OUT: 0

IN: Plant response rating, Sedge, Umbrella lookup needed for `CCc1cccc(Oc2ncc(Cl)cn2)c1CCCCC(F)(F)F` , thanks.
OUT: 95

IN: Fill in: Plant response rating, Sedge, Umbrella of `O=C(OCC1CCCC1)c1c(Br)cccc1Oc1ncc(Cl)cn1` is ___
OUT: 0

IN: Looking for the measured Plant response rating, Sedge, Umbrella of `N#CCOC(=O)c1c(F)cccc1Oc1ncc(Cl)cn1` , can you help?
OUT: 0

IN: Given `N#Cc1cccc(Oc2ncc(Cl)cn2)c1C(=O)CCCC(F)(F)F` , state its recorded Plant response rating, Sedge, Umbrella.
OUT: 0

IN: Given the entry `N#CCCOC(=O)c1c(Br)cccc1Oc1ncc(Cl)cn1` , report its measured Plant response rating, Sedge, Umbrella.
OUT: 0

IN: Reported Plant response rating, Sedge, Umbrella, compound `O=C(OCCC(F)(F)F)c1c(Oc2ncc(Cl)cn2)cccc1C(F)(F)F` : ____
OUT: 90
